# System: KM12
# protocol description: NCI tumour cell line growth inhibition, 48 h
Active and inactive are the calls of the source. Rule as the data show it: active = GI50 up to about 1.1 µM and inactive = higher.
Measured GI50 accompanies every entry in the list below.
assay endpoint: GI50

[
  {
    "structure as smiles": "CC12CC/C(=N/NC(N)=O)C3C1CCCC32",
    "target": "KM12",
    "test value": "> 100 µM (inactive)"
  },
  {
    "structure as smiles": "CC1=C(O)C(=O)c2cn(C)cc2C1=O",
    "target": "KM12",
    "test value": "> 100 µM (inactive)"
  },
  {
    "structure as smiles": "N/N=C1N=C(Cl)/C(=C/c2ccco2)N\\1",
    "target": "KM12",
    "test value": "28.2 µM (inactive)"
  }
]

* * *

Measured GI50 accompanies every entry in the list below.
# Tested on: MDA-N
# protocol description: NCI tumour cell line growth inhibition, 48 h
Calls of active or inactive are those of the source. Rule as the data show it: active = GI50 up to about 1.1 µM and inactive = higher.
assay endpoint: GI50

[
  {
    "compound": "C[C@]12CC[C@H](O)CC1=CC[C@@H]1[C@@H]2CC[C@]2(C)C(=O)[C@@H](N3CCOCC3)C[C@@H]12",
    "test value": "> 100 µM (inactive)"
  },
  {
    "compound": "CC(=O)NNc1nc(C)c(C(/C=C/c2ccc([N+](=O)[O-])cc2)=N/NC(N)=O)s1",
    "test value": "> 100 µM (inactive)"
  },
  {
    "compound": "Nc1ncn([C@H]2C[C@H](O)[C@@H](CO)O2)c(=O)n1",
    "test value": "1.46 µM (inactive)"
  },
  {
    "compound": "COc1cc(OCCN(C)C)c2[nH]c(C(=O)N3CC(CCl)c4ccc(N)cc43)cc2c1 (stereo not given)",
    "test value": "0.0643 µM (active)"
  },
  {
    "compound": "O=C(/C=C/c1ccc(-c2ccccc2)cc1)NCc1ccc(C(=O)NCCc2c[nH]c3ccccc23)cc1",
    "test value": "49.2 µM (inactive)"
  },
  {
    "compound": "Cc1c(Cl)cccc1/N=N/C(=O)NNc1cccc(Cl)c1C",
    "test value": "17.2 µM (inactive)"
  },
  {
    "compound": "O=[N+]([O-])c1ccc(/N=N/c2c(O)ccc3cc(S(=O)(=O)O)ccc23)cc1",
    "test value": "> 100 µM (inactive)"
  },
  {
    "compound": "c1ccc(CN2CCC3(CC2)SSC2(CCN(Cc4ccccc4)CC2)S3)cc1",
    "test value": "44.7 µM (inactive)"
  },
  {
    "compound": "O=C(c1cscc1CCc1ccccc1)c1cscc1CCc1ccccc1",
    "test value": "> 100 µM (inactive)"
  },
  {
    "compound": "C[C@@H]1OC(=O)C[C@H]2CC(=O)N(CCC3CN(C(=O)OCc4ccccc4)c4ccccc43)C[C@@H]21 (stereo not given in full)",
    "test value": "> 100 µM (inactive)"
  }
]

* * *

# Tested on: OVCAR-8
# protocol description: NCI tumour cell line growth inhibition, 48 h
The source made the active and inactive calls. Cut-off read from the data, not from the text of the source: active = GI50 up to about 1.1 µM and inactive = higher.
Outcome codes: active, inactive

[
  {
    "compound": "CCN(CC)C(=S)N/N=C1\\C(=O)Nc2ccccc21",
    "class label": "active"
  },
  {
    "compound": "O=S1(=O)OCCOS(=O)(=O)C1(Br)Br",
    "class label": "inactive"
  },
  {
    "compound": "Cc1cc(C)c2c(=O)cc(-c3ccccc3)[nH]c2c1",
    "class label": "inactive"
  },
  {
    "compound": "COC(=O)[C@]1(C)CCC[C@@]2(C)C1CC[C@]13C=C(C(C)C)[C@H](CC21)CC3(Cl)C#N (some centres undefined)",
    "class label": "inactive"
  },
  {
    "compound": "COc1cc([C@@H]2c3cc4c(cc3[C@@H](Nc3ccc(C(=O)N[C@H]5CCc6cc(OC)c(OC)c(OC)c6-c6ccc(SC)c(=O)cc65)cc3)[C@H]3COC(=O)[C@H]23)OCO4)cc(OC)c1O",
    "class label": "active"
  },
  {
    "compound": "O=C1C2C(C(=O)N1c1ccccc1)C1c3ccccc3C2C2C(=O)N(c3ccccc3)C(=O)C21 (centres undefined)",
    "class label": "inactive"
  },
  {
    "compound": "BrC12C3C4C5C(C(C43)C13OCCO3)C52 (centres undefined)",
    "class label": "inactive"
  },
  {
    "compound": "CC1=CC(=O)C(C)(C2=NC(C)(C)CO2)c2ccccc21 (centres undefined)",
    "class label": "inactive"
  },
  {
    "compound": "COc1ccc(/C=C/C(=O)c2sc(-c3cccnc3)nc2C)cc1",
    "class label": "inactive"
  }
]
